# Test system: Staphylococcus aureus
# PROCEDURE_DETAILS: Antibacterial activity against Staphylococcus aureus 10B
# Format: functional
REPORTED_ENDPOINT: log10 MIC (log10 of the value in µg/mL)
Note the log scale: values are log10 of MIC expressed in µg/mL.

Query: I'm curious: which log10 MIC was measured for COC1/C=C/OC2(C)Oc3c(C)c(O)c4c(O)c(c(O)c(O)c4c3C2=O)NC(=O)/C(C)=C\C=C\C(C)C(O)C(C)C(O)C(C)C(OC(C)=O)C1C (stereo not given) tested on Staphylococcus aureus?
Response: -1.00

Query: Requested read-out log10 MIC, target or system Staphylococcus aureus, entry COC1/C=C/OC2(C)Oc3c(C)c(O)c4c(O)c(c(N5CCN(Cc6c(C)cc(C)cc6C)CC5)c(O)c4c3C2=O)NC(=O)/C(C)=C\C=C\C(C)C(OC(C)=O)C(C)C(OC(C)=O)C(C)C(OC(C)=O)C1C (stereo not given)
Response: 0.60

Query: # returns recorded log10 MIC (system: Staphylococcus aureus) for CCCCCCCCCCCCN1CCN(c2c3c(O)c4c(O)c(C)c5c(c4c2O)C(=O)C(C)(O/C=C/C(OC)C(C)C(OC(C)=O)C(C)C(O)C(C)C(O)C(C)/C=C/C=C(/C)C(=O)N3)O5)CC1 (stereo not given)
Response: -0.82

Query: Quick check: log10 MIC on Staphylococcus aureus, item COC1/C=C/OC2(C)Oc3c(C)c(O)c4c(O)c(c5c(c4c3C2=O)=NC2(CCN(CC(C)C)CC2)N=5)NC(=O)/C(C)=C\C=C\C(C)C(O)C(C)C(O)C(C)C(OC(C)=O)C1C (stereo not given) ?
Response: -3.00

Query: Which log10 MIC is reported with Staphylococcus aureus for this entry: CO[C@H]1/C=C/O[C@@]2(C)Oc3c(C)c(O)c4c(O)c(cc(O)c4c3C2=O)NC(=O)/C(C)=C\C=C\[C@H](C)[C@H](O)[C@@H](C)[C@@H](O)[C@@H](C)[C@H](OC(C)=O)[C@@H]1C ?
Response: -3.00

Query: log10 MIC of COC1/C=C/OC2(C)Oc3c(C)c(O)c4c(O)c(c(N5CCN(Cc6c(C)cc(C)cc6C)CC5)c(O)c4c3C2=O)NC(=O)/C(C)=C\C=C\C(C)C(=O)C(C)C(O)C(C)C(OC(C)=O)C1C (stereo not given) on Staphylococcus aureus?
Response: 1.81

Query: Request body: readout log10 MIC, system Staphylococcus aureus, query COC1/C=C/OC2(C)Oc3c(C)c(O)c4c(O)c(c(N5CCN(Cc6ccc(C(C)(C)C)cc6)CC5)c(O)c4c3C2=O)NC(=O)/C(C)=C\C=C\C(C)C(O)C(C)C(O)C(C)C(OC(C)=O)C1C (stereo not given) . Return the value.
Response: -0.30

Query: Please provide the recorded log10 MIC for COC1/C=C/OC2(C)Oc3c(C)c(O)c4c(O)c(c(N5CCN(Cc6c(C)cc(C)cc6C)CC5)c(O)c4c3C2=O)NC(=O)/C(C)=C\C=C\C(C)C(O)C(C)C(=O)C(C)C(OC(C)=O)C1C (stereo not given) , tested on Staphylococcus aureus.
Response: 0.30

====

# Test system: Staphylococcus aureus
# PROCEDURE_DETAILS: Antibacterial activity against Staphylococcus aureus 10B
# Assay type: functional
Exercise: for every item that follows, state its recorded MIC.
Write the value in µg/mL as a bare number.

Query: Return reported MIC; argument: COc1c(C)c2c3c4c1C(=O)C(=C(N1CCN(Cc5c(C)cc(C)cc5C)CC1)C4=O)NC(=O)/C(C)=C\C=C\C(C)C(O)C(C)C(O)C(C)C(OC(C)=O)C(C)C(OC)/C=C/OC(C)(O2)C3=O (stereo not drawn)
Response: 1

Query: So what's the measured MIC for this one? COC1/C=C/OC2(C)Oc3c(C)c(O)c4c(O)c(c(N5CCN(Cc6ccc(Cl)cc6)CC5)c(O)c4c3C2=O)NC(=O)/C(C)=C\C=C\C(C)C(O)C(C)C(O)C(C)C(OC(C)=O)C1C (stereo not drawn)
Response: 0.002

====

Hi there, I'd appreciate the recorded Activity for every entry that follows.
# System: Rattus norvegicus
# PROCEDURE_DETAILS: Tested for hypolipidemic activity in male rats, cholesterol was determined in serum at 50 mg/kg
# Assay type: functional
Numeric answer only, unit % assumed.

Query: Return reported Activity; argument: COC1/C=C/OC2(C)Oc3c(C)c(O)c4c(O)c(c(N5CCN(Cc6ccc(Cl)cc6)CC5)c(O)c4c3C2=O)NC(=O)/C(C)=C\C=C\C(C)C(O)C(C)C(O)C(C)C(OC(C)=O)C1C (stereo unspecified)
Response: -74

Query: What measured Activity goes with COC1/C=C/OC2(C)Oc3c(C)c(O)c4c(O)c(c(N5CCN(Cc6ccccc6)CC5)c(O)c4c3C2=O)NC(=O)/C(C)=C\C=C\C(C)C(O)C(C)C(O)C(C)C(OC(C)=O)C1C (stereo unspecified) ?
Response: -29

Query: Fill in: Activity of COC1/C=C/OC2(C)Oc3c(C)c(O)c4c(O)c(c(C=O)c(O)c4c3C2=O)NC(=O)/C(C)=C\C=C\C(C)C(O)C(C)C(O)C(C)C(OC(C)=O)C1C (stereo unspecified) is ___
Response: -5

Query: Look up Activity: COC1/C=C/OC2(C)Oc3c(C)c(O)c4c(O)c(c5c(c4c3C2=O)=NC2(CCN(CC(C)C)CC2)N=5)NC(=O)/C(C)=C\C=C\C(C)C(O)C(C)C(O)C(C)C(OC(C)=O)C1C (stereo unspecified)
Response: -7

Query: What value of Activity has been reported for the following compound? COC1/C=C/OC2(C)Oc3c(C)c(O)c4c(O)c(c5nc6cc(C)ccc6nc5c4c3C2=O)NC(=O)/C(C)=C\C=C\C(C)C(O)C(C)C(O)C(C)C(OC(C)=O)C1C (stereo unspecified)
Response: -14

Query: // returns reported Activity for input COC1/C=C/OC2(C)Oc3c(C)c(O)c4c(O)c(c(O)c(O)c4c3C2=O)NC(=O)/C(C)=C\C=C\C(C)C(O)C(C)C(O)C(C)C(OC(C)=O)C1C (stereo unspecified)
Response: 4

Query: Activity; subject: COC1/C=C/OC2(C)Oc3c(C)c(O)c4c(O)c(c(C=NN5CCN6CCCCC6C5)c(O)c4c3C2=O)NC(=O)/C(C)=C\C=C\C(C)C(O)C(C)C(O)C(C)C(OC(C)=O)C1C (stereo unspecified)
Response: -49

Query: Quick one: Activity of COC1/C=C/OC2(C)Oc3c(C)c(O)c4c(O)c(c(N5CCN(CC(C)C)CC5)c(O)c4c3C2=O)NC(=O)/C(C)=C\C=C\C(C)C(O)C(C)C(O)C(C)C(OC(C)=O)C1C (stereo unspecified) ?
Response: -50

Query: Would you kindly share the measured Activity for COC1/C=C/OC2(C)Oc3c(C)c(O)c4c(O)c(c(N)c(O)c4c3C2=O)NC(=O)/C(C)=C\C=C\C(C)C(O)C(C)C(O)C(C)C(OC(C)=O)C1C (stereo unspecified) ?
Response: -2

Query: Item under review: CCC1CCC2CN(N=Cc3c4c(O)c5c(O)c(C)c6c(c5c3O)C(=O)C(C)(O/C=C/C(OC)C(C)C(OC(C)=O)C(C)C(O)C(C)C(O)C(C)/C=C/C=C(/C)C(=O)N4)O6)CCN2C1 (stereo unspecified) . Reported Activity?
Response: -62

Query: What value of Activity has been reported for the following compound? COC1/C=C/OC2(C)Oc3c(C)c(O)c4c(O)c(c(C=NN5CCN(C6CCCC6)CC5)c(O)c4c3C2=O)NC(=O)/C(C)=C\C=C\C(C)C(O)C(C)C(O)C(C)C(OC(C)=O)C1C (stereo unspecified)
Response: -62

====

# Test system: Rattus norvegicus
# PROCEDURE_DETAILS: Hypolipidemic activity was determined in male rats, and low-density lipoprotein level was determined at 50 mg/kg
# Type: functional
REPORTED_ENDPOINT: Activity (%)
Report only the number, with the unit % understood.

Query: Form entry - test system: Rattus norvegicus; read-out: Activity; molecule: COC1/C=C/OC2(C)Oc3c(C)c(O)c4c(O)c(c(N)c(O)c4c3C2=O)NC(=O)/C(C)=C\C=C\C(C)C(O)C(C)C(O)C(C)C(OC(C)=O)C1C (stereo not drawn)
Response: 19

Query: Lab request: please report Activity under test system Rattus norvegicus for COC1/C=C/OC2(C)Oc3c(C)c(O)c4c(O)c(c(C=O)c(O)c4c3C2=O)NC(=O)/C(C)=C\C=C\C(C)C(O)C(C)C(O)C(C)C(OC(C)=O)C1C (stereo not drawn)
Response: 19

Query: Param readout= Activity; system= Rattus norvegicus; entry= COC1/C=C/OC2(C)Oc3c(C)c(O)c4c(O)c(c5[nH]c(N6CCN(Cc7ccccc7)CC6)nc5c4c3C2=O)NC(=O)/C(C)=C\C=C\C(C)C(O)C(C)C(O)C(C)C(OC(C)=O)C1C (stereo not drawn) ; returns value.
Response: -23

Query: Notebook: pull reported Activity for Rattus norvegicus, entry Cc1cc(C)c(CN2CCN(C3=CC(=O)c4ccccc4C3=O)CC2)c(C)c1
Response: 18

Query: For Rattus norvegicus, provide Activity of CCC1CCC2CN(N=Cc3c4c(O)c5c(O)c(C)c6c(c5c3O)C(=O)C(C)(O/C=C/C(OC)C(C)C(OC(C)=O)C(C)C(O)C(C)C(O)C(C)/C=C/C=C(/C)C(=O)N4)O6)CCN2C1 (stereo not drawn) please.
Response: -31

Query: Write down the reported Activity of Cc1cc(C)c(CN2CCNCC2)c(C)c1 , test system: Rattus norvegicus.
Response: 0

Query: Observed Activity on Rattus norvegicus for COC1/C=C/OC2(C)Oc3c(C)c(O)c4c(O)c(c(N5CCN(Cc6ccccc6)CC5)c(O)c4c3C2=O)NC(=O)/C(C)=C\C=C\C(C)C(O)C(C)C(O)C(C)C(OC(C)=O)C1C (stereo not drawn) , please.
Response: -56

Query: Request body: readout Activity, system Rattus norvegicus, query COC1/C=C/OC2(C)Oc3c(C)c(O)c4c(O)c(c5c(c4c3C2=O)=NC2(CCN(CC(C)C)CC2)N=5)NC(=O)/C(C)=C\C=C\C(C)C(O)C(C)C(O)C(C)C(OC(C)=O)C1C (stereo not drawn) . Return the value.
Response: 14
